Cited source: the supplement of paper PMC7877785

For each of the sequences below, state its self-splicing fitness (ln).
ASSAY PROCEDURE: self-splicing fitness, log relative to wild type (ln ratio); higher = more splicing; Tetrahymena group I intron in knt gene, E. coli kanamycin selection, DiMSum; sequences stand for … in CUCUCU…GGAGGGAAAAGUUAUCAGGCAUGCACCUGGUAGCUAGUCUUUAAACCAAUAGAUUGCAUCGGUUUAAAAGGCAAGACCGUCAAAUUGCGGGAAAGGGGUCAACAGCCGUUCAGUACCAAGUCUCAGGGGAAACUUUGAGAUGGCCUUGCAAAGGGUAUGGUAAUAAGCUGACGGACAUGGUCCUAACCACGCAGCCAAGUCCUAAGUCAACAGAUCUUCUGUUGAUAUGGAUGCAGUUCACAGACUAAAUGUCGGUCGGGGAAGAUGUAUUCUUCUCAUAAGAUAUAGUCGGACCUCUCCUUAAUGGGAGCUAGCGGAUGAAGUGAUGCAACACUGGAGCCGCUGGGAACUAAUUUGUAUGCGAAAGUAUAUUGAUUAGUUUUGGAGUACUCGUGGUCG;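 also: selection with 25 µg/mL kanamycin versus none on LB agar overnight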
ASSAY CONDITIONS: 30 °C
Form rule: numeric answer, no unit written next to it.

Enquiry: Dear colleague, please send me the reported self-splicing fitness (ln) for AUUUAGCAAUAUUACGCGCA when you can.
Return: -0.312

Enquiry: Return self-splicing fitness (ln) (reported value) for this sequence: CAUAAGCAAUAUUACGAUUA
Return: -1.64

Enquiry: Give the reported value of self-splicing fitness (ln) for this record: UCGAAGCAAUAUUACGGGGA
Return: -1.17

Enquiry: Respond only with self-splicing fitness (ln) recorded for UUCAAGCAAUAUUACGCCAG
Return: 0.732

Enquiry: Assign self-splicing fitness (ln) to the following record: UCCGAGCAAUAUUACGCGUA
Return: -1.14

Enquiry: Name the recorded self-splicing fitness (ln) of the item CGUAAGCAAUAUUACGGGUA in your answer.
Return: -2.63

Enquiry: Give the reported value of self-splicing fitness (ln) for this record: AAGAAGCAAUAUUACGCUGA
Return: -2.47

Enquiry: Specify reported self-splicing fitness (ln) for the sequence shown: CAAGAGCAAUAUUACGUGCC
Return: -3.59

Enquiry: Return self-splicing fitness (ln) for the following sequence: GUUAAGCAAUAUUACGGAUU
Return: -2.21

Enquiry: State, in one line, measured self-splicing fitness (ln) of GGUUAGCAAUAUUACGAAAU
Return: -1.45

Enquiry: Output self-splicing fitness (ln) of GUACAGCAAUAUUACGCAGC
Return: -2.41

Enquiry: Look up and state reported self-splicing fitness (ln) for GGAAAGCAAUAUUACGACGG
Return: -4.1

Enquiry: Complete the entry with self-splicing fitness (ln) for CCUGAGCAAUAUUACGGUAC
Return: -4.34

Enquiry: Quote self-splicing fitness (ln) reported for AUCAAGCAAUAUUACGGAAA please.
Return: -2.58

Enquiry: Complete the entry with self-splicing fitness (ln) for AACUAGCAAUAUUACGGUAU
Return: -1.31

Enquiry: Return self-splicing fitness (ln) (reported value) for this sequence: AUCUAGCAAUAUUACGCCCA
Return: -0.101
